IP for assorted compounds
Species: Rattus norvegicus
assay overview: Open TG-GATES - Regimen: Single
Type: toxicity, organism-based, Sprague-Dawley
Set-up: regimen Single, gender Male, age 6 weeks
reported conditions: in vivo, po, 0 mg/kg, 3 h, tissue Plasma, route gavage, dose level Control
observation type: IP

> print(dat)
                                   compound      result
1   CC(S)C(=O)NCC(=O)O (stereo unspecified)   7.7 mg/dL
2                          O=c1ccc2ccccc2o1  10.7 mg/dL
3  C=C[C@H]1C[N@@]2CC[C@H]1C[C@@H]2[C@@H](O)c1ccnc2ccc(OC)cc12   8.8 mg/dL
4      CN(C/C=C/C#CC(C)(C)C)Cc1cccc2ccccc12     9 mg/dL
5  CCCCNC(=O)NS(=O)(=O)c1ccc(C)cc1 [TOLBUTAMIDE]   8.9 mg/dL
6                   Nc1ccc(Cc2ccc(N)cc2)cc1   9.1 mg/dL
